B1: KCNAB2 (parent)
chain: YVDVVFANRPDPNTPMEETVRAMT

Variants of: B1
Assay: protein stability index of a GFP-peptide fusion (GPS, HEK-293T) (PSI 1-6); higher = more stable;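 also: lentivirally expressed fusions sorted by FACS into six bins by GFP to DsRed ratio, PSI derived from sequencing read proportions per bin multiplied by bin number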
Details: c terminus: a fixed tail appended
// NOT MET strictly below 2 in protein stability index; MET otherwise

{"columns": ["Variant Description", "Category"],
 "data": [
  ["V2M", "MET"],
  ["D11S", "NOT MET"],
  ["A7E", "MET"],
  ["P10A", "NOT MET"],
  ["R21I", "MET"],
  ["T14R", "MET"],
  ["Y1M", "MET"],
  ["A7C", "NOT MET"],
  ["E17Y", "MET"],
  ["E18I", "MET"],
  ["T24S", "NOT MET"]
]}
